Molecular target: JAK3 (Homo sapiens, UniProt P52333)
Sequence (P52333 1-1124): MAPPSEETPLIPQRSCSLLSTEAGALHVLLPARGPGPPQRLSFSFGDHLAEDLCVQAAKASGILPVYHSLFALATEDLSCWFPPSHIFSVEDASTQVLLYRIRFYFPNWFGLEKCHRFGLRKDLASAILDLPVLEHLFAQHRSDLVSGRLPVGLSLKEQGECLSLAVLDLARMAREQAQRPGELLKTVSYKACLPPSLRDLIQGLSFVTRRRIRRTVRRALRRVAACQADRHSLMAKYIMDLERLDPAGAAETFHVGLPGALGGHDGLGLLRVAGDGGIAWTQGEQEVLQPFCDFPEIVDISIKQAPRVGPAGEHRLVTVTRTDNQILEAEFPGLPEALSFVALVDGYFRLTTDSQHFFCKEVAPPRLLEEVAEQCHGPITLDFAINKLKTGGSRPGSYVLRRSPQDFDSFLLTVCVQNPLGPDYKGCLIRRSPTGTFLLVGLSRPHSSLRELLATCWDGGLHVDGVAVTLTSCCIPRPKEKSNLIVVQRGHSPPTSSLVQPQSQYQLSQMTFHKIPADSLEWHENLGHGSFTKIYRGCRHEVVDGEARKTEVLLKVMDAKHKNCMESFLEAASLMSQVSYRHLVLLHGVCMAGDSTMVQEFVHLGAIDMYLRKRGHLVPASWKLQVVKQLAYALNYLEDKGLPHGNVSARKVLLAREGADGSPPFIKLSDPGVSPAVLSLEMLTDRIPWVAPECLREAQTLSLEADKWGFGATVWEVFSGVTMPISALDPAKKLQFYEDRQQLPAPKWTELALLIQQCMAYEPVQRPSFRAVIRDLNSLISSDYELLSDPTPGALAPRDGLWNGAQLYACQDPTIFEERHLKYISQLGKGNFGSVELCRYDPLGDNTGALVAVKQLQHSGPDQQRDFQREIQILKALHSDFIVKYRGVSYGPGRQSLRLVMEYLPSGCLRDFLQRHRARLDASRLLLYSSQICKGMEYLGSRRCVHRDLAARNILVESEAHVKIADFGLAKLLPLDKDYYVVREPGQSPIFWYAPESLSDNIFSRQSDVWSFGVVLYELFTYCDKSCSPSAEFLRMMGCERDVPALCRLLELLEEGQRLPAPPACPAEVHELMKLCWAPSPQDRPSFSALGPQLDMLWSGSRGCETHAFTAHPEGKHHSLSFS
Measured metric: Ki

Any idea what Ki was measured for Cc1cc(Nc2cc(N3CC(F)(C4CC4)C3)nc(O[C@H]3CCN(C(=O)c4cc(Cl)ccc4F)C3)n2)[nH]n1 ?
< 0.25 µM

----------
molecular target: JAK-2 enzyme (Homo sapiens, UniProt O60674)
Sequence (O60674 whole entry, species assumed): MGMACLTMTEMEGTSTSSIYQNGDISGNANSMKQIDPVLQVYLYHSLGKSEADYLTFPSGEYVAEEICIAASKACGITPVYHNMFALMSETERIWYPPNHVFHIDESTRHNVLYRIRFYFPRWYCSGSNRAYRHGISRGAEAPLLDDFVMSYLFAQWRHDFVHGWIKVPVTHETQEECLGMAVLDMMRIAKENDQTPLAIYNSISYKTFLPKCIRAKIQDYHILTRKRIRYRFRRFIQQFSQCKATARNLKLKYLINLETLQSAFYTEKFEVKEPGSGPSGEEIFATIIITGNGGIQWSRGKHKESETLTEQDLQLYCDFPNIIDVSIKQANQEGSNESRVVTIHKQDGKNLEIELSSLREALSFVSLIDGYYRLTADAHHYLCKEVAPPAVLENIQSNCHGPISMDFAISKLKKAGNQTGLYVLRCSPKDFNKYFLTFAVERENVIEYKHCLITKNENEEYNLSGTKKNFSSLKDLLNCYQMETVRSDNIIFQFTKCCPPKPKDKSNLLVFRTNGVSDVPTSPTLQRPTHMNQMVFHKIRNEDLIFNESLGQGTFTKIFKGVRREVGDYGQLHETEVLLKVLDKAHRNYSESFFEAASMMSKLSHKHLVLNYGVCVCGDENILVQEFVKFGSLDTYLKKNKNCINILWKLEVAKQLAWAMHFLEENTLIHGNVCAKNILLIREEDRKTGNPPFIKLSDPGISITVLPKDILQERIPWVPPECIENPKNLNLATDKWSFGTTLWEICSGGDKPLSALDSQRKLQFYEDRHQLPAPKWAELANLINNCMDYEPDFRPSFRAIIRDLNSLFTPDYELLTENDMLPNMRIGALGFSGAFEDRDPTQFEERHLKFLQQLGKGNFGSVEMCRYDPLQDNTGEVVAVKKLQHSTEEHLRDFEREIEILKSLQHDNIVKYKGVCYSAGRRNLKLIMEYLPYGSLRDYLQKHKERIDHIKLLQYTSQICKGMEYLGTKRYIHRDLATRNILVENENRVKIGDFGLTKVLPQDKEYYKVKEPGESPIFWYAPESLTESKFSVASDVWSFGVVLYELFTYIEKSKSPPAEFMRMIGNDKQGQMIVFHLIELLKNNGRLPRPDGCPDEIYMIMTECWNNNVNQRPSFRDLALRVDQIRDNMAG
Measured metric: Ki

What reported Ki corresponds to Cc1cc(Nc2cc(N3CCC3)nc(O[C@H]3CCN(C(=O)OC(C)(C)C)C3)n2)[nH]n1 [Compound I-1] on JAK-2 enzyme (Homo sapiens, UniProt O60674)?
< 250 nM

----------
biological target: UniProt Q96GD4
Sequence (Q96GD4 whole entry, species assumed): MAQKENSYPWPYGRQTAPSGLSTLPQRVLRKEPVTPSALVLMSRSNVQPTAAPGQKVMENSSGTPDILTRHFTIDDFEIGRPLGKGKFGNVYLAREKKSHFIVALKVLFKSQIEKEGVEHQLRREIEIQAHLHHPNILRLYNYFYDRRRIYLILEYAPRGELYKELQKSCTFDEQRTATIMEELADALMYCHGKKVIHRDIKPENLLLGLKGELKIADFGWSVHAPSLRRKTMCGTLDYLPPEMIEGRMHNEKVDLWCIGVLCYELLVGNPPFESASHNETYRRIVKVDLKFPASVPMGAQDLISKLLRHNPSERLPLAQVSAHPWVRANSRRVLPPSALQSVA
Measured metric: Ki

Any idea what Ki was measured for Cc1cc(Nc2cc(N3CC(F)(C4CC4)C3)nc(O[C@H]3CCN(C(=O)c4cc(Cl)ccc4F)C3)n2)[nH]n1 ?
< 25 nM

----------
molecular target: UniProtKB Q08881
Sequence (Q08881 whole entry): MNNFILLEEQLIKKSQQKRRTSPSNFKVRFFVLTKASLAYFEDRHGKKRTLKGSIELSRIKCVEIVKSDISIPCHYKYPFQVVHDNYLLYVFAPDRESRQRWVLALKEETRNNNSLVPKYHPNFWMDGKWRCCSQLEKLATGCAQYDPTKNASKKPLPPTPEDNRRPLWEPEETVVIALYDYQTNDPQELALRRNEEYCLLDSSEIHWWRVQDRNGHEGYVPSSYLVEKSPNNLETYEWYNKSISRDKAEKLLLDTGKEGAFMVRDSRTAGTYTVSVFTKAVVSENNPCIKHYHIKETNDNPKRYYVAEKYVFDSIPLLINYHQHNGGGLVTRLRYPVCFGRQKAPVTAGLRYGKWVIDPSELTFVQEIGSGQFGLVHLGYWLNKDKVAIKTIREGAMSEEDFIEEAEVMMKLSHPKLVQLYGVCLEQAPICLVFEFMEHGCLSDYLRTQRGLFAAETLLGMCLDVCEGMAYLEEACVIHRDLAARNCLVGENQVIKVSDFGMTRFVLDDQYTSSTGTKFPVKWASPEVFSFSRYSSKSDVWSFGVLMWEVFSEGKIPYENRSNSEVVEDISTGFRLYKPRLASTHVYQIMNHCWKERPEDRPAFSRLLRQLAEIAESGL
Measured metric: Ki

What reported Ki corresponds to Cc1cc(Nc2cc(N3CCC3)nc(O[C@H]3CCN(C(=O)OC(C)(C)C)C3)n2)[nH]n1 on UniProtKB Q08881?
< 1 µM

Source of measurements: patent US20070179125A1
